Molecular target: T1, Cyno ASGR-1 (cynomolgus monkey, UniProt P07306 1-291 (human entry))
T1 construct: Expressed on HEK 293 cells or as membrane prep on beads; cDNA from XP_005582755; also called cynomologus monkey ASGR-1
T1 chain: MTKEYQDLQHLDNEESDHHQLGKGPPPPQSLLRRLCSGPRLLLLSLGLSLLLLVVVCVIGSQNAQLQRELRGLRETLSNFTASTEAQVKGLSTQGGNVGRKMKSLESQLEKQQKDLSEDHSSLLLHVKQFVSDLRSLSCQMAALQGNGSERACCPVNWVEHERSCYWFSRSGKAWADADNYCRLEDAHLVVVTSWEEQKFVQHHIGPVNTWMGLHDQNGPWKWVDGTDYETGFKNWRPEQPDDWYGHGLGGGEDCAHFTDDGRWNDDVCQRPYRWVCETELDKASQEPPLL
Experiment: FACS on transfected HEK 293 cells or membrane preps on beads; Y = signal at least 2x irrelevant IgG
measurement.type: binding result

- binder: "6G7 (antibody, V domains shown, Tested as hybridoma supernatant at normalized concentration) VH: QVQLVESGGGVVQPGRSLRLSCAASGFTFSSYGMHWVRQTPGKGLEWVAIISYVGKNKYYADSVKGRFTISRDNSKNTLYLQMNSLRAEDTAVYYCARRGNSYGGYGMDVWGQGTTVTVSS VL: DIQMTQSPSSRSASVGDRVTITCQASQDISNYLNWCQQKPGKALKLLIYDASTLETGVPSRFSGSGSGTDFTFTISSVQPEDIATYYCQQYDNVPITFGQGTRLEIK"
  assay.result: "binds"
- binder: "7G4 (antibody, V domains shown, Tested as hybridoma supernatant at normalized concentration) VH: QVQLVESGGGVVQPGRSLRLSCAASGFTFNNYVMHWVRQAPGKGLEWVAVIWYDGSNKYYADSVKGRFTISRDNSKNTLYLQMTSLRAEDTAVYYCAREKYSSNWYDYGMDVWGQGTTVTVSS VL: DIQMTQSPSSLSASVGDRVTITCRASQGIRNDLGWYQQRPGKAPKRLIYAASSLQSGVPSRFSGSGSGTEFTLTISSLQPEDSATYYCLHQYSYPRTFGQGTKVEIK"
  assay.result: "binds"
